The origin of these recorded values is patent US20070185311A1.

# ASSAY SYSTEM: T1, DD(E) fragment of fibrin
# T1 chain 1: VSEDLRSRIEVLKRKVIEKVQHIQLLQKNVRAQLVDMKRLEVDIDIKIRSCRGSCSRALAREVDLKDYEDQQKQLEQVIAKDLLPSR
# T1 chain 2: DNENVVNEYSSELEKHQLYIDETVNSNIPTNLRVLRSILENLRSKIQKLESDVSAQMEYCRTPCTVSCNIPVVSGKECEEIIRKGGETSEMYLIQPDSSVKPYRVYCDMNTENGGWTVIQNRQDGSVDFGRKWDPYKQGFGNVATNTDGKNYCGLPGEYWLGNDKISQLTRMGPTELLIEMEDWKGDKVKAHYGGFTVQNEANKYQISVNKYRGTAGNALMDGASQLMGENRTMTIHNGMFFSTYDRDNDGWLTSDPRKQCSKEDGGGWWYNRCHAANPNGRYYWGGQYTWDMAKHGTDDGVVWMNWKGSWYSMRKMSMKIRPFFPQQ
# T1 chain 3: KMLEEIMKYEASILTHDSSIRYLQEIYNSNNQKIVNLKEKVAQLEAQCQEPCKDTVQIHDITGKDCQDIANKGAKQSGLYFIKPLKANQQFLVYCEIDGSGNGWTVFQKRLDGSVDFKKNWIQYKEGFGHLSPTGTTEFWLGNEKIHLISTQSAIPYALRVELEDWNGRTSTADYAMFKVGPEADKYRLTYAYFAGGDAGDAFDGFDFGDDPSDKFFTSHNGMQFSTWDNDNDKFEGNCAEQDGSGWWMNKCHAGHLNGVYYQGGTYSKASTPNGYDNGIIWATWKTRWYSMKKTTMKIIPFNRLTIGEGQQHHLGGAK
# T1 chain 4: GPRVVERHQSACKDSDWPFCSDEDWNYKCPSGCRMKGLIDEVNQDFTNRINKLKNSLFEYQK
# T1 chain 5: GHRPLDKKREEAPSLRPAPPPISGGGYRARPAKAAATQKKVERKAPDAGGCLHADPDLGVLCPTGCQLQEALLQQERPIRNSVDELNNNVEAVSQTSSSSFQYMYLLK
# T1 chain 6: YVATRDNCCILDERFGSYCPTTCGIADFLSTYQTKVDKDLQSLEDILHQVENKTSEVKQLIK
# EXPERIMENTAL PROTOCOL: affinity to DD(E) fragment of fibrin
pKd: −log10 of the molar value. Positions of bridges follow the written chain, without caps; N, C: chain ends. Non-standard residues stand in square brackets, D forms with d. No end group written: not given here. Tyr(3-Cl) = N[C@@H](Cc1ccc(O)c(Cl)c1)C(=O)O; 2Nal = N[C@@H](Cc1ccc2ccccc2c1)C(=O)O; Hyp = O=C(O)[C@@H]1C[C@@H](O)CN1
READOUT TYPE: pKd

# count of solved cases: 2
* FHC[Hyp][Tyr(3-Cl)][2Nal]LCHIL (disulfide 3-8 (inferred)) [F-H-C-Hyp-Y(3-Cl)-(2-Nal)-L-C-H-I-L] | ≥ 6.30
* YEC[Hyp][Tyr(3-Cl)]GLCYIQ (disulfide 3-8 (inferred)) [Y-E-C-Hyp-Y(3-Cl)-G-L-C-Y-I-Q] | ≥ 6.70

Problem: Let me know recorded pKd for FHC[Hyp][Tyr(3-Cl)]GLCHIL (disulfide 3-8 (inferred)) [F-H-C-Hyp-Y(3-Cl)-G-L-C-H-I-L] , thanks.
Result: ≥ 6.40

Problem: Supply pKd value. Item: HEC[Hyp][Tyr(3-Cl)]GLCHIQ (disulfide 3-8 (inferred)) [H-E-C-Hyp-Y(3-Cl)-G-L-C-H-I-Q]
Result: ≥ 6.40
